experiment: NCI Yeast Anticancer Drug Screen. Data for the rad50 strain (AID 155); conditions: S. cerevisiae rad50 strain growth inhibition; at 50.0 µM (retest, dose inferred, filed as 5.0)
Compounds without any hit were thinned out: in the full panel of roughly 79,000, 15% have a hit. Calls of active or inactive are those of the source. No stated cut-off is given here; in the data, active means growth inhibition above about 70%; inactive means the rest.
In this exercise, the only acceptable responses are Yes (active), No (inactive)

Incoming: Outcome? O=[N+]([O-])c1ccc2nnnn2c1
Outgoing: Yes

Incoming: Outcome? Cc1c2ccncc2c(C)c2c1oc1ccccc12
Outgoing: Yes

Incoming: Outcome? CN(C)CCNC(=O)c1cccc2nc3c(ccc4ccccc43)nc12
Outgoing: Yes

Incoming: Outcome? O=C(O)/C=C\C(=O)NNc1ccc(Br)cc1
Outgoing: Yes

Incoming: Outcome? CCCCOc1ccc(Nc2c3ccccc3nc3ccccc23)cc1
Outgoing: Yes

Incoming: Outcome? Cc1nc2ccc(NCCN(C)C)c3c(=O)c4ccccc4n1c23
Outgoing: Yes

Incoming: Outcome? Clc1ccc(C(c2ccc(Cl)cc2)N2CCNCC2)cc1
Outgoing: Yes

Incoming: Outcome? Nc1ccc2cc(Br)c3ccccc3c2c1
Outgoing: No

Incoming: Outcome? Cc1[nH]nc(C(F)(F)F)c1N=NN(C)C
Outgoing: Yes

Incoming: Outcome? COc1ccc(/C=C2\CCc3ccccc3C2=O)cc1OC
Outgoing: No

Incoming: Outcome? O=C1C(Br)=CC(Br)(Br)C=C1Br
Outgoing: Yes

Incoming: Outcome? Cn1c(COc2ccc(/C=N/NC(=O)CCC(=O)N/N=C/c3ccc(OCc4c[n+]5ccccc5n4C)cc3)cc2)c[n+]2ccccc12
Outgoing: No

Incoming: Outcome? Cc1cc(SC#N)ccc1O
Outgoing: Yes

Incoming: Outcome? CCOC(=O)C1=C(C)NC(C)=C(C(=O)OCC)C1c1cccc([N+](=O)[O-])c1
Outgoing: Yes

Incoming: Outcome? CC(C)(C(=O)NN)c1ccccc1
Outgoing: Yes

Incoming: Outcome? c1ccc2cc(OCC3CO3)c(OCC3CO3)cc2c1 (stereo unspecified)
Outgoing: Yes

The values you see were collected from PubChem BioAssay (NCI).
